Target: CYP1A2 (Homo sapiens (Human), UniProt P05177)
Sequence (P05177 whole entry): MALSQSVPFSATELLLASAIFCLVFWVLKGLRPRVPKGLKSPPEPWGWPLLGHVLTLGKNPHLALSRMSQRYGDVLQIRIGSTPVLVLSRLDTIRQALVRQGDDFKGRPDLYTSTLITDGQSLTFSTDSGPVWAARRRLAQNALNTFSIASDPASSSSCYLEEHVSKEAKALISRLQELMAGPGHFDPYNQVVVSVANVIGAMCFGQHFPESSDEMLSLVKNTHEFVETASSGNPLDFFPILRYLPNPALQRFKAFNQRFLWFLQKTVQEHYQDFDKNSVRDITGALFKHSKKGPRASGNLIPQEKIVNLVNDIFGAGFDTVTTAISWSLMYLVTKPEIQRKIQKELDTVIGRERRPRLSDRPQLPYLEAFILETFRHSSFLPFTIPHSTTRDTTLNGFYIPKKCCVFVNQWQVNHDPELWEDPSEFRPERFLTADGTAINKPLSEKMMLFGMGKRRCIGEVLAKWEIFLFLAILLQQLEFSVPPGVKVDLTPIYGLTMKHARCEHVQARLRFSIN
Experiment: CYP inhibition in human liver microsomes
Recorded IC50, one value per entry.
measure: IC50 (µM)

INSERT INTO measurements (molecule, relationsymbol, numericvalue) VALUES
  ('CC(c1ccc(C(F)(F)F)cc1C(F)(F)F)n1cc(NC(=O)c2cc(-c3ccco3)on2)cn1 (single isomer, unassigned) [“Enantiomer A” of Example S6]', '=', 15.3),
  ('CC(c1ccc(C(F)(F)F)cc1C(F)(F)F)n1cc(NC(=O)c2cc(-c3ccccn3)on2)cn1 (single isomer, unassigned) [“Enantiomer A” of Example S5]', '>', 50);

====

Assay: In vitro microsomal stability, rat liver microsomes
Format: in vitro ADME
Settings: remaining fraction after 30 min; 1 μM compound, 0.5 mg/mL rat liver microsomes, 1 mM NADPH
Recorded Rem. @ rLM (%), one value per entry.
measure: Rem. @ rLM (%)

INSERT INTO results (cpdsmiles, measure, result) VALUES
  ('C[C@H](c1ccc(C(F)(F)F)cc1C(F)(F)F)n1cc(NC(=O)c2cc(-c3ncccn3)on2)cn1', 'Rem. @ rLM (%)', '60.62%'),
  ('C[C@H](c1ccc(C(F)(F)F)cc1C(F)(F)F)n1cc(NC(=O)c2nnc(-c3ccccn3)s2)cn1', 'Rem. @ rLM (%)', '81.5%'),
  ('Cc1ccc(-c2cc(C(=O)Nc3cnn(Cc4ccc(C(F)(F)F)cc4C(F)(F)F)c3)no2)o1', 'Rem. @ rLM (%)', '4.5%'),
  ('CN(C(=O)c1cc(-c2ccccn2)on1)c1cnn(Cc2ccc(C(F)(F)F)cc2C(F)(F)F)c1', 'Rem. @ rLM (%)', '5.24%');

====

Experiment: in vivo
Conditions: Balb/c, mouse, po, 10 mg/kg
measure: Tmax (h)

INSERT INTO assay_data (compound, numericvalue) VALUES
  ('O=C(Nc1cnn(Cc2ccc(C(F)(F)F)cc2C(F)(F)F)c1)c1cc(-c2ccccn2)on1', 0.25),
  ('C[C@H](c1ccc(C(F)(F)F)cc1C(F)(F)F)n1cc(NC(=O)c2cc(-c3cnccn3)on2)cn1', 6),
  ('CC(c1ccc(C(F)(F)F)cc1C(F)(F)F)n1cc(NC(=O)c2cc(-c3ccccn3)on2)cn1 (single isomer, unassigned) [“Enantiomer A” of Example S5]', 1),
  ('O=C(Nc1cnn(Cc2ccc(C(F)(F)F)cc2C(F)(F)F)c1)c1cc(-c2cnccn2)on1', 0.5),
  ('C[C@H](c1ccc(C(F)(F)F)cc1C(F)(F)F)n1cc(NC(=O)c2cc(-c3ccccn3)no2)cn1', 1),
  ('CC(c1ccc(C(F)(F)F)cc1C(F)(F)F)n1cc(NC(=O)c2cc(-c3ccco3)on2)cn1 (single isomer, unassigned) [“Enantiomer A” of Example S6]', 0.5),
  ('C[C@H](c1ccc(C(F)(F)F)cc1C(F)(F)F)n1cc(NC(=O)c2nnc(-c3ccccn3)s2)cn1', 1);

====

Test: In vitro microsomal stability, mouse liver microsomes
Format: in vitro ADME
Conditions: remaining fraction after 30 min; 1 μM compound, 0.5 mg/mL mouse liver microsomes, 1 mM NADPH
measure: Rem. @ mLM (%)

INSERT INTO measurements (compound, measure, numericvalue) VALUES
  ('C[C@H](c1ccc(C(F)(F)F)cc1C(F)(F)F)n1cc(NC(=O)c2cc(-c3ccccn3)no2)cn1', 'Rem. @ mLM (%)', 74.9),
  ('Cc1nn([C@H](C)c2ccc(C(F)(F)F)cc2C(F)(F)F)cc1NC(=O)c1cc(-c2ccccn2)on1', 'Rem. @ mLM (%)', 29.2),
  ('O=C(Nc1cnn(Cc2ccc(C(F)(F)F)cc2C(F)(F)F)c1)c1cc(-c2ccco2)on1 [Ceapin-A7, reference compound]', 'Rem. @ mLM (%)', 12),
  ('Cc1c(NC(=O)c2cc(-c3ccccn3)on2)cnn1[C@H](C)c1ccc(C(F)(F)F)cc1C(F)(F)F', 'Rem. @ mLM (%)', 44.5),
  ('C[C@H](c1ccc(C(F)(F)F)cc1C(F)(F)F)n1cc(NC(=O)c2cc(-c3ncccn3)on2)cn1', 'Rem. @ mLM (%)', 51.17),
  ('CC(c1ccc(C(F)(F)F)cc1C(F)(F)F)n1cc(NC(=O)c2cnc(-c3ccccn3)s2)cn1 (stereo not shown)', 'Rem. @ mLM (%)', 76.8),
  ('O=C(Nc1cnn(Cc2ccc(C(F)(F)F)cc2C(F)(F)F)c1)c1cc(-c2ncccn2)on1', 'Rem. @ mLM (%)', 67.9);

====

Experiment: In vitro microsomal stability, rat liver microsomes
Type: in vitro ADME
Conditions: pH 7.4; intrinsic clearance; rat liver microsomes; read-out: Clint @ rLM
Recorded microsomal CLint at […], 1 µM, one value per entry.
measure: microsomal CLint at […], 1 µM

INSERT INTO assay_data (compound, result) VALUES
  ('C[C@H](c1ccc(F)cc1C(F)(F)F)n1cc(NC(=O)c2cc(-c3ccccn3)on2)cn1 [Compound 110]', '28.7 µL/min/mg'),
  ('O=C(Nc1cnn(Cc2ccc(C(F)(F)F)cc2C(F)(F)F)c1)c1cc(-c2cccs2)on1 [Compound 14]', '314 µL/min/mg'),
  ('Cc1ccc(-c2cc(C(=O)Nc3cnn(Cc4ccc(C(F)(F)F)cc4C(F)(F)F)c3)no2)o1 [Compound 22]', '204 µL/min/mg'),
  ('CC(c1ccc(C(F)(F)F)cc1C(F)(F)F)n1cc(NC(=O)c2nnc(-c3cnccn3)s2)cn1 (stereo not drawn) [Compound 136]', '44 µL/min/mg'),
  ('Cc1nn([C@@H](C)c2ccc(C(F)(F)F)cc2C(F)(F)F)cc1NC(=O)c1cc(-c2ccccn2)on1 [Compound 100]', '33.4 µL/min/mg'),
  ('C[C@H](c1ccc(C(F)(F)F)cc1C(F)(F)F)n1cc(NC(=O)c2cc(-c3ccccn3)no2)cn1 [Compound 76]', '34.7 µL/min/mg'),
  ('CC(c1ccc(C(F)(F)F)cc1C(F)(F)F)n1cc(NC(=O)c2cnc(-c3ccccn3)s2)cn1 (stereo not drawn) [Compound 78]', '22.3 µL/min/mg'),
  ('C[C@H](c1ccc(C(F)(F)F)cc1C(F)(F)F)n1cc(NC(=O)c2nnc(-c3cnccn3)s2)cn1 [Compound 152]', '7.2 µL/min/mg'),
  ('Cc1nn([C@H](C)c2ccc(C(F)(F)F)cc2C(F)(F)F)cc1NC(=O)c1cc(-c2ccccn2)on1 [Compound 99]', '28.3 µL/min/mg'),
  ('CC(c1ccc(C(F)(F)F)cc1C(F)(F)F)n1cc(NC(=O)c2cc(-c3ccco3)on2)cn1 (stereo not drawn) [Compound 12]', '291 µL/min/mg'),
  ('O=C(Nc1cnn(Cc2ccc(C(F)(F)F)cc2C(F)(F)F)c1)c1cc(-c2ccccn2)on1 [Compound 11]', '44 µL/min/mg'),
  ('O=C(Nc1cnn(Cc2ccc(C(F)(F)F)cc2C(F)(F)F)c1)c1cc(-c2ncccn2)on1 [Compound 129]', '12 µL/min/mg'),
  ('Cc1c(NC(=O)c2cc(-c3ccccn3)on2)cnn1[C@H](C)c1ccc(C(F)(F)F)cc1C(F)(F)F [Compound 97]', '23.6 µL/min/mg'),
  ('C[C@H](c1ccc(C(F)(F)F)cc1C(F)(F)F)n1cc(NC(=O)c2nnc(-c3ccccn3)s2)cn1 [Compound 123]', '10.7 µL/min/mg'),
  ('C[C@H](c1ccc(C(F)(F)F)cc1C(F)(F)F)n1cc(NC(=O)c2cn(-c3ccccn3)nn2)cn1 [Compound 121]', '23.9 µL/min/mg'),
  ('O=C(Nc1cnn(Cc2ccc(C(F)(F)F)cc2C(F)(F)F)c1)c1cc(-c2cnccn2)on1 [Compound 114]', '25 µL/min/mg'),
  ('C[C@H](c1ccc(C(F)(F)F)cc1C(F)(F)F)n1cc(NC(=O)c2cc(-c3ncccn3)on2)cn1 [Compound 101]', '28.2 µL/min/mg'),
  ('Cc1c(NC(=O)c2cc(-c3ccco3)on2)cnn1Cc1ccc(C(F)(F)F)cc1C(F)(F)F [Compound 93]', '20.2 µL/min/mg');

====

Target: CYP1A2 (Homo sapiens (Human))
Assay: CYP inhibition in human liver microsomes
Details: microsomes
measure: IC50

INSERT INTO measurements (compound, assayedtarget, measure, result) VALUES
  ('O=C(Nc1cnn(Cc2ccc(C(F)(F)F)cc2C(F)(F)F)c1)c1cc(-c2ccco2)on1 [Ceapin-A7, reference compound]', 'CYP1A2 (Homo sapiens (Human))', 'IC50', '> 50 µM');

====

Conditions: Balb/c, mouse, in vivo, po, 10 mg/kg
Recorded F [%], one value per entry.
measure: F [%] (%)

INSERT INTO results (molecule, numericvalue) VALUES
  ('O=C(Nc1cnn(Cc2ccc(C(F)(F)F)cc2C(F)(F)F)c1)c1cc(-c2ccccn2)on1', 48.6),
  ('C[C@H](c1ccc(C(F)(F)F)cc1C(F)(F)F)n1cc(NC(=O)c2cc(-c3ccccn3)no2)cn1', 50.6),
  ('CC(c1ccc(C(F)(F)F)cc1C(F)(F)F)n1cc(NC(=O)c2cc(-c3ccco3)on2)cn1 (single isomer, unassigned) [“Enantiomer A” of Example S6]', 9.6),
  ('O=C(Nc1cnn(Cc2ccc(C(F)(F)F)cc2C(F)(F)F)c1)c1cc(-c2cnccn2)on1', 43.3),
  ('C[C@H](c1ccc(C(F)(F)F)cc1C(F)(F)F)n1cc(NC(=O)c2cc(-c3cnccn3)on2)cn1', 85.9),
  ('C[C@H](c1ccc(C(F)(F)F)cc1C(F)(F)F)n1cc(NC(=O)c2nnc(-c3ccccn3)s2)cn1', 64.1),
  ('CC(c1ccc(C(F)(F)F)cc1C(F)(F)F)n1cc(NC(=O)c2cc(-c3ccccn3)on2)cn1 (single isomer, unassigned) [“Enantiomer A” of Example S5]', 66.3);

These entries and their values trace back to patent US20240124434A1.
